# TEST TARGET: AEA-DA lipid probe targets in Neuro2a cells (Mus musculus, UniProt Q9JKW0)
# Sequence (Q9JKW0 whole entry): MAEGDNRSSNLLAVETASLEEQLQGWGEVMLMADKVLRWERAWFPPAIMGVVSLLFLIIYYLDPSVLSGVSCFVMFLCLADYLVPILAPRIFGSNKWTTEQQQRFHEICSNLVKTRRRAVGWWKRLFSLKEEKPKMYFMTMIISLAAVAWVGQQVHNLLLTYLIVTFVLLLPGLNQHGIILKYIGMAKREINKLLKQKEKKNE
# COND: competitor 25 μM
This listing pairs compounds with measured SILAC ratio Arl6ip1.

COMPOUND	TEST TARGET	SILAC ratio Arl6ip1
C=CCN(C)CCCCCCOc1ccc(C(=O)c2ccc(Br)cc2)c(F)c1 [Ro 48-8071, reference compound]	AEA-DA lipid probe targets in Neuro2a cells (Mus musculus, UniProt Q9JKW0)	1.1
CN1CCN(C(=O)c2c(-c3ccccc3)c3cc([N+](=O)[O-])ccc3n2C)CC1	AEA-DA lipid probe targets in Neuro2a cells (Mus musculus, UniProt Q9JKW0)	1.4
CN1CCN(C(=O)c2[nH]c3ccc([N+](=O)[O-])cc3c2-c2ccccc2)CC1	AEA-DA lipid probe targets in Neuro2a cells (Mus musculus, UniProt Q9JKW0)	1.6
O=C(/C=C/c1cccnc1)NCCCCC1CCN(C(=O)c2ccccc2)CC1 [FK-866, reference compound]	AEA-DA lipid probe targets in Neuro2a cells (Mus musculus, UniProt Q9JKW0)	1.0

###

# TEST TARGET: AEA-DA lipid probe targets in Neuro2a cells (Mus musculus, UniProt Q505D7)
# Sequence (Q505D7 whole entry): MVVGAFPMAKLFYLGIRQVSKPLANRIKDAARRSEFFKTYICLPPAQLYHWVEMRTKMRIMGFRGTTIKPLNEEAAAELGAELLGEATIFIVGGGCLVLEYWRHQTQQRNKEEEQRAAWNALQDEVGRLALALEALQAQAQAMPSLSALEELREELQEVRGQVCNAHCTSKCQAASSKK
# COND: competitor 25 μM
# SILAC ratio, Opa3 values compiled below

COMPOUND	SILAC ratio, Opa3
C=CCN(C)CCCCCCOc1ccc(C(=O)c2ccc(Br)cc2)c(F)c1 [Ro 48-8071, reference compound]	1.4
CN1CCN(C(=O)c2c(-c3ccccc3)c3cc([N+](=O)[O-])ccc3n2C)CC1	1.6
CN1CCN(C(=O)c2[nH]c3ccc([N+](=O)[O-])cc3c2-c2ccccc2)CC1	1.4
O=C(/C=C/c1cccnc1)NCCCCC1CCN(C(=O)c2ccccc2)CC1 [FK-866, reference compound]	1.1

###

# TEST TARGET: AEA-DA lipid probe targets in Neuro2a cells (Mus musculus, UniProt Q9WV54)
# Sequence (Q9WV54 19-394): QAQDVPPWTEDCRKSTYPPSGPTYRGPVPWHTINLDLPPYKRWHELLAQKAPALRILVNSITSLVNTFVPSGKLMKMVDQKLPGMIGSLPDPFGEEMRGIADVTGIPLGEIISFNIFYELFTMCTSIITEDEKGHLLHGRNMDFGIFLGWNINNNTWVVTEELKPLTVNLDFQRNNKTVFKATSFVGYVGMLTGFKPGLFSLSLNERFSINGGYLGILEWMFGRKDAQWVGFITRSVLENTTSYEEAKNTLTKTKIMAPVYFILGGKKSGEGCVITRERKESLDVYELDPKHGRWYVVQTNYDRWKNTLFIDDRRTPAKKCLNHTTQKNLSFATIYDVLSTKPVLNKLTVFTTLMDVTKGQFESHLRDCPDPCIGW
# COND: competitor 25 μM
Below, each entry is listed alongside its reported SILAC ratio Asah1.

COMPOUND	SILAC ratio Asah1
C=CCN(C)CCCCCCOc1ccc(C(=O)c2ccc(Br)cc2)c(F)c1 [Ro 48-8071, reference compound]	1.0
CN1CCN(C(=O)c2c(-c3ccccc3)c3cc([N+](=O)[O-])ccc3n2C)CC1	1.2
CN1CCN(C(=O)c2[nH]c3ccc([N+](=O)[O-])cc3c2-c2ccccc2)CC1	1.6
O=C(/C=C/c1cccnc1)NCCCCC1CCN(C(=O)c2ccccc2)CC1 [FK-866, reference compound]	1.3
